Give Trimeric HA Binding: RLU for every item shown.
- System Tested: recombinant soluble homotrimeric HA of A/Solomon Islands/3/06 (H1N1) (Influenza A virus A/Solomon Islands/3/2006(H1N1))
- Protocol Text: trimeric HA microarray, transfection supernatant set 4
- Assay Setup: remark: other sources report otherwise
One number for each entry, in RLU.

Reference set (3 entries):
[[record]]
binder = "TCN-523 (5248_A17) (antibody, V domains shown) VH: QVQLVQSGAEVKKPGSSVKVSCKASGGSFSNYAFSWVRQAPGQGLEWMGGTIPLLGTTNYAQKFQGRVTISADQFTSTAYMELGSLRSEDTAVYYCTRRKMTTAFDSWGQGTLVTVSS VL: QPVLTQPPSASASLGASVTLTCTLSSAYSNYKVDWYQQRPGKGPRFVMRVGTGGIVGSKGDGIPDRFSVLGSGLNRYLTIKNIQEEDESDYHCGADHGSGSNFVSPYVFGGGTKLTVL"
recorded_value = 371

[[record]]
binder = "TCN-535 (5246_P19) (antibody, V domains shown) VH: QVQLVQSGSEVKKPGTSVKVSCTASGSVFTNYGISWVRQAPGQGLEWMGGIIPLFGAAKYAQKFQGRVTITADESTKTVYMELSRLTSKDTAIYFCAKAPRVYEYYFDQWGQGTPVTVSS VL: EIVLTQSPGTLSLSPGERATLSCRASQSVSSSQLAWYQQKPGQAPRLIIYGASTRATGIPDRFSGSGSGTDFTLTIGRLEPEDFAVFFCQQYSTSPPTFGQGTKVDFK"
recorded_value = 836

[[record]]
binder = "TCN-504 (3251_K17) (antibody, V domains shown) VH: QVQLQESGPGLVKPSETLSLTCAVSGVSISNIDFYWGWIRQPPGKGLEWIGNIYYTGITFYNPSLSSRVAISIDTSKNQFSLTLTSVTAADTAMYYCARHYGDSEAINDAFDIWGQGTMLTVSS VL: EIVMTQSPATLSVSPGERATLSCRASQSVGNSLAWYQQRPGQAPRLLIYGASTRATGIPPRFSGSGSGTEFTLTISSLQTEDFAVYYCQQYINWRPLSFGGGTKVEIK"
recorded_value = 14600


Query :: Please report the recorded Trimeric HA Binding: RLU for TCN-534 (5249_B02) (antibody, V domains shown) VH: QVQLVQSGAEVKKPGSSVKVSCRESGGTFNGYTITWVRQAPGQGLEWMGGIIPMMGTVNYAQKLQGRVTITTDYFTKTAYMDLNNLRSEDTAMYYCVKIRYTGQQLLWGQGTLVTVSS VL: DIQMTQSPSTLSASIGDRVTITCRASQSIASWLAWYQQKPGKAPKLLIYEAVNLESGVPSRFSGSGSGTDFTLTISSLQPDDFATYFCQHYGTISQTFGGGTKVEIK .
Result :: 60
